tested on: E. coli; assay: Minimal Inhibitory Concentration (MIC) determination, 96 well plates; assay type: cell-based, Escherichia coli; settings: Escherichia coli; HBI medium, 16 to 18 hours at 37°C; read-out: MIC (µg/ml) E. coli
QUANTITY_NAME: MIC (µg/mL)

COMPOUND	QUANTITY_NAME	READOUT_QUALIFIER	NUMERIC_VALUE
CCc1cc(Nc2cc(=O)n(CCCCCN3CCC4CN(c5cc6c(cc5F)c(=O)c(C(=O)O)cn6C5CC5)CC43)c(=O)[nH]2)ccc1C (stereo not shown) [Compound 81]	MIC	>	80
CCc1cc(Nc2cc(=O)n(CCCCCNC3CCN(c4cc5c(cc4F)c(=O)c(C(=O)O)cn5C4CC4)C3)c(=O)[nH]2)ccc1C (stereo not shown) [Compound 83]	MIC	>	80
CCc1cc(Nc2cc(=O)n(CCCCCN3CC4CN(c5cc6c(cc5F)c(=O)c(C(=O)O)cn6C5CC5)CC4C3)c(=O)[nH]2)ccc1C (stereo not shown) [Compound 86]	MIC	>	80
CCc1cc(Nc2cc(=O)n(CCCCN3CCN(c4nc5c(cc4F)c(=O)c(C(=O)O)cn5CC)CC3)c(=O)[nH]2)ccc1C [Compound 6]	MIC	>	20
Cc1ccc(Nc2cc(=O)n(CCCCN3CCN(c4c(F)cc5c(=O)c(C(=O)O)cn(C6CC6)c5c4F)C[C@@H]3C)c(=O)[nH]2)cc1C [Compound 99]	MIC	=	0.625
CCc1cc(Nc2cc(=O)n(CCCCCN3CCOC4CN(c5cc6c(cc5F)c(=O)c(C(=O)O)cn6C5CC5)CC43)c(=O)[nH]2)ccc1C (stereo not shown) [Compound 84]	MIC	>	80
CCc1cc(Nc2cc(=O)n(CCCCN3CCN(c4cc5c(cc4F)c(=O)c(C(=O)O)cn5C4CC4)C[C@H]3C)c(=O)[nH]2)ccc1C [Compound 95]	MIC	=	10
CCc1cc(Nc2cc(=O)n(CCCCCN3CCN(c4cc5c(cc4F)c(=O)c(C(=O)O)cn5C4CC4)CC3)c(=O)[nH]2)ccc1C [Compound 15]	MIC	=	5
Cc1ccc(Nc2cc(=O)n(CCCCN3CCN(c4c(F)cc5c(=O)c(C(=O)O)cn(C6CC6)c5c4F)CC3)c(=O)[nH]2)cc1C [Compound 101]	MIC	=	5
CCc1cc(Nc2cc(=O)n(CCCCN3CCN(c4c(F)cc5c(=O)c(C(=O)O)cn(C6CC6)c5c4F)CC3CO)c(=O)[nH]2)ccc1C (stereo not shown) [Compound 91]	MIC	>	80
O=C(O)c1cn(C2CC2)c2cc(N3CCN(CCCCn4c(=O)cc(NCc5ccc(Cl)c(Cl)c5)[nH]c4=O)CC3)c(F)cc2c1=O [Compound 68]	MIC	=	12.5
CCc1cc(Nc2cc(=O)n(CCCCN3CCN(c4cc5c(cc4F)c(=O)c(C(=O)O)cn5C4CC4)C[C@@H]3C)c(=O)[nH]2)ccc1C [Compound 100]	MIC	=	50
CCc1cc(Nc2cc(=O)n(CCCCN3CCN(c4cc5c(cc4F)c(=O)c(C(=O)O)cn5C4CC4)CC3)c(=O)[nH]2)ccc1C.CS(=O)(=O)O [Compound 10]	MIC	=	5
CCc1cc(Nc2cc(=O)n(CCCCN3CCN(c4c(F)cc5c(=O)c(C(=O)O)cn(C6CC6)c5c4F)C[C@@H]3C)c(=O)[nH]2)ccc1C [Compound 71]	MIC	=	5
CCc1cc(Nc2cc(=O)n(CCCCCN3CCCC4CN(c5cc6c(cc5F)c(=O)c(C(=O)O)cn6C5CC5)CC43)c(=O)[nH]2)ccc1C (stereo not shown) [Compound 82]	MIC	>	80
CCc1cc(Nc2cc(=O)n(CCCCN3CCN(c4c(F)cc5c(=O)c(C(=O)O)cn(CC)c5c4F)CC3)c(=O)[nH]2)ccc1C [Compound 7]	MIC	>	20
Cc1ccc(Nc2cc(=O)n(CCCCN3CCN(c4cc5c(cc4F)c(=O)c(C(=O)O)cn5C4CC4)CC3)c(=O)[nH]2)cc1Cl [Compound 64]	MIC	=	7.5
CC1CN(c2c(F)cc3c(=O)c(C(=O)O)cn(C4CC4)c3c2F)CCN1CCCCn1c(=O)cc(Nc2ccc3c(c2)CCC3)[nH]c1=O (stereo not shown) [Compound 92]	MIC	=	2.5
CCc1cc(Nc2cc(=O)n(CCCCN3CCOC4CN(c5cc6c(cc5F)c(=O)c(C(=O)O)cn6C5CC5)CC43)c(=O)[nH]2)ccc1C (stereo not shown) [Compound 87]	MIC	>	40
